- Tested on: BT-549 breast
- assayOverview: NCI tumour cell line growth inhibition, 48 h
measuredMetric: GI50

                                   compound   result
0  CN(C)c1ccc(O)c2c1C[C@H]1C[C@H]3[C@H](N(C)C)C(=O)C(C(N)=O)=C(O)[C@@]3(O)C(=O)C1=C2O  4.14 µM
1  NCCCCN(Cc1nc2ccccc2[nH]1)[C@H]1CCCc2cccnc21  22.8 µM
2  Cc1nn(-c2nc3ccccc3[nH]2)c2c1C(c1ccc3c(c1)OCO3)CC(=O)N2 (centres undefined)  3.26 µM
3  O=C(CCCCCCC(=O)Nc1ccc2c(c1)/C(=C/c1ccc[nH]1)C(=O)N2)NO  1.87 µM
4      N#Cc1nc2cc(F)c(F)cc2nc1-c1ccc(Cl)cc1  19.8 µM
5  CC1/C(=N/Nc2ccc([N+](=O)[O-])cc2)CC2C3(C)CCC2(C(C)C(=O)O)C(=O)C13 (centres undefined)  12.3 µM
6  CC1=C(C(=O)Nc2ccc(F)c(Cl)c2)C(c2cccc(Oc3ccccc3)c2)NC(=O)N1 (centres undefined)  15.3 µM
7  COc1cccc2c(=O)c3c(sc12)c(NCCN(C)C)nc1ccccc13  2.31 µM
8  CN(C)CCNC(=O)c1cc2c3ccccc3[nH]c2c2ncccc12  6.36 µM
